System: NCI 60 cancer cell lines
TEST: NCI anticancer screening over a panel of 60 cancer cells, single concentration 10 µM
Type: cell-based, human
CONDITION NOTES: Homo sapiens, OVCAR-3, Ovarian cancer OVCAR-3, 10 μM; read-out: % Growth Inhibition (GI %)
REPORTED METRIC: inhibition at 10 µM

MOLECULE	REPORTED METRIC	RECORDED RESULT
C/C(=N\Nc1ccc(S(N)(=O)=O)cc1)c1cnn(-c2cc(=O)[nH]c3ccc(Cl)cc23)c1C [Compound 4d]	inhibition at 10 µM	23.4%
C/C(=N\Nc1ccc(C(=O)O)cc1)c1cnn(-c2cc(=O)[nH]c3ccc(Cl)cc23)c1C [Compound 4i]	inhibition at 10 µM	< 5%
COc1ccc2[nH]c(=O)cc(-n3ncc(/C(C)=N/Nc4ccc(C(=O)O)cc4)c3C)c2c1 [Compound 4h]	inhibition at 10 µM	< 5%
C/C(=N\Nc1ccc(C(=O)O)cc1)c1cnn(-c2cc(=O)[nH]c3ccccc23)c1C [Compound 4f]	inhibition at 10 µM	< 5%
C/C(=N\Nc1ccc(C(=O)O)cc1)c1cnn(-c2cc(=O)[nH]c3ccc(Br)cc23)c1C [Compound 4j]	inhibition at 10 µM	< 5%

Take each entry in turn and give its inhibition at 10 µM.
1. C/C(=N\Nc1ccc(S(N)(=O)=O)cc1)c1cnn(-c2cc(=O)[nH]c3ccc(Br)cc23)c1C [Compound 4e]
2. COc1ccc2[nH]c(=O)cc(-n3ncc(/C(C)=N/Nc4ccc(S(N)(=O)=O)cc4)c3C)c2c1 [Compound 4c]

Outgoing:
1. 43.8%
2. < 5%

* * *

Test system: NCI 60 cancer cell lines
TEST: NCI anticancer screening over a panel of 60 cancer cells, single concentration 10 µM
Type: cell-based, human
CONDITION NOTES: Homo sapiens, OVCAR-5, Ovarian cancer OVCAR-5, 10 μM; read-out: % Growth Inhibition (GI %)
Experimental: Ten final compounds 4a–j and five intermediates 2a–e have been selected by the National Cancer Institute (NCI) for anticancer screening over a panel of 60 cancer cells that cover a variety of histological tissues, including the central nervous system, leukemia, lung, colon, kidney, ovary, breast, and prostate, using the protocol established by the National Cancer Institute (NCI). In a primary screening, each compound was screened at a concentration of 10 µM. […]
Would you kindly list inhibition at 10 µM for each of these compounds?

Take each entry in turn and give its inhibition at 10 µM.
1. C/C(=N\Nc1ccc(C(=O)O)cc1)c1cnn(-c2cc(=O)[nH]c3ccc(Br)cc23)c1C [Compound 4j]
2. C/C(=N\Nc1ccc(C(=O)O)cc1)c1cnn(-c2cc(=O)[nH]c3ccccc23)c1C [Compound 4f]
3. C/C(=N\Nc1ccc(S(N)(=O)=O)cc1)c1cnn(-c2cc(=O)[nH]c3ccc(Cl)cc23)c1C [Compound 4d]
4. C/C(=N\Nc1ccc(C(=O)O)cc1)c1cnn(-c2cc(=O)[nH]c3ccc(Cl)cc23)c1C [Compound 4i]
5. C/C(=N\Nc1ccc(S(N)(=O)=O)cc1)c1cnn(-c2cc(=O)[nH]c3ccc(C)cc23)c1C [Compound 4b]

Outgoing:
["< 5%", "< 5%", "11.5%", "< 5%", "< 5%"]

* * *

Would you kindly list inhibition at 10 µM for each of these compounds?
Test system: NCI 60 cancer cell lines
TEST: NCI anticancer screening over a panel of 60 cancer cells, single concentration 10 µM
Type: cell-based, human
CONDITION NOTES: Homo sapiens, RPMI-8226, Leukemia RPMI-8226, 10 μM; read-out: % Growth Inhibition (GI %)
Give bare numbers, in %.

SUBSTANCE SMILES	RECORDED RESULT
C/C(=N\Nc1ccc(S(N)(=O)=O)cc1)c1cnn(-c2cc(=O)[nH]c3ccc(Br)cc23)c1C	25.7

Incoming: Name the recorded inhibition at 10 µM of the compound listed here: C/C(=N\Nc1ccc(C(=O)O)cc1)c1cnn(-c2cc(=O)[nH]c3ccc(C)cc23)c1C
Outgoing: 14.9

* * *

Would you kindly list inhibition at 10 µM for each of these compounds?
Test system: NCI 60 cancer cell lines
TEST: NCI anticancer screening over a panel of 60 cancer cells, single concentration 10 µM
Type: cell-based, human
CONDITION NOTES: Homo sapiens, MDA-MB-468, Breast cancer MDA-MB-468, 10 μM; read-out: % Growth Inhibition (GI %)
Numbers only, in %.

Some compounds with recorded inhibition at 10 µM:
SUBSTANCE SMILES	inhibition at 10 µM (%)
C/C(=N\Nc1ccc(S(N)(=O)=O)cc1)c1cnn(-c2cc(=O)[nH]c3ccccc23)c1C	24.8
C/C(=N\Nc1ccc(S(N)(=O)=O)cc1)c1cnn(-c2cc(=O)[nH]c3ccc(Br)cc23)c1C	111
C/C(=N\Nc1ccc(C(=O)O)cc1)c1cnn(-c2cc(=O)[nH]c3ccc(C)cc23)c1C	16.8
C/C(=N\Nc1ccc(S(N)(=O)=O)cc1)c1cnn(-c2cc(=O)[nH]c3ccc(C)cc23)c1C	41.7
C/C(=N\Nc1ccc(S(N)(=O)=O)cc1)c1cnn(-c2cc(=O)[nH]c3ccc(Cl)cc23)c1C	47.2

Now, please, on to the next compound.
Incoming: Name the recorded inhibition at 10 µM of the compound listed here: COc1ccc2[nH]c(=O)cc(-n3ncc(/C(C)=N/Nc4ccc(S(N)(=O)=O)cc4)c3C)c2c1
Outgoing: 7.22

* * *

Tested on: lung cancer (HOP-92) cell line
TEST: MTT antiproliferative assay, HOP-92
Assay type: cell-based, human
CONDITION NOTES: Homo sapiens, HOP-92, HOP-92, MTT, 6.3uM; read-out: % viability
REPORTED METRIC: viability at 6.3 µM (%)
Answers are plain numbers, in %.

Some molecules with recorded viability at 6.3 µM:
MOLECULE	viability at 6.3 µM [%]
C/C(=N\Nc1ccc(S(N)(=O)=O)cc1)c1cnn(-c2cc(=O)[nH]c3ccc(Cl)cc23)c1C [Compound 4d]	64.5
C/C(=N\Nc1ccc(C(=O)O)cc1)c1cnn(-c2cc(=O)[nH]c3ccccc23)c1C [Compound 4f]	64.3
C/C(=N\Nc1ccc(S(N)(=O)=O)cc1)c1cnn(-c2cc(=O)[nH]c3ccc(Br)cc23)c1C [Compound 4e]	47.9

Now, please, on to the next molecule.
Incoming: Name the recorded viability at 6.3 µM of the molecule listed here: C/C(=N\Nc1ccc(C(=O)O)cc1)c1cnn(-c2cc(=O)[nH]c3ccc(C)cc23)c1C [Compound 4g]
Outgoing: 56.5

* * *

System: NCI 60 cancer cell lines
TEST: NCI anticancer screening over a panel of 60 cancer cells, single concentration 10 µM
Assay type: cell-based, human
CONDITION NOTES: Homo sapiens, RPMI-8226, Leukemia RPMI-8226, 10 μM; read-out: Growth inhibition (GI %)
Procedure: Ten final compounds 4a–j and five intermediates 2a–e have been selected by the National Cancer Institute (NCI) for anticancer screening over a panel of 60 cancer cells that cover a variety of histological tissues, including the central nervous system, leukemia, lung, colon, kidney, ovary, breast, and prostate, using the protocol established by the National Cancer Institute (NCI). In a primary screening, each compound was screened at a concentration of 10 µM. […]
Would you kindly list inhibition at 10 µM for each of these molecules?
Give bare numbers, in %.

Some molecules with recorded inhibition at 10 µM:
MOLECULE	inhibition at 10 µM [%]
COc1ccc2[nH]c(=O)cc(-n3ncc(C(C)=O)c3C)c2c1 [Compound 2c]	11.7
CC(=O)c1cnn(-c2cc(=O)[nH]c3ccc(Cl)cc23)c1C [Compound 2d]	9.16
CC(=O)c1cnn(-c2cc(=O)[nH]c3ccc(Br)cc23)c1C [Compound 2e]	9.34

Incoming: # assay system NCI 60 cancer cell lines: give inhibition at 10 µM of CC(=O)c1cnn(-c2cc(=O)[nH]c3ccccc23)c1C [Compound 2a]
Outgoing: 26.6

* * *

STUDY TARGET: EGFR (Homo sapiens, UniProt P00533)
Construct: EGFR cytoplasmic domain (EGFR-CD, amino acids 645–1186); His6 (N); made in house; host or cells: Sf-9 insect cells (baculovirus)
Sequence (P00533 669-1210): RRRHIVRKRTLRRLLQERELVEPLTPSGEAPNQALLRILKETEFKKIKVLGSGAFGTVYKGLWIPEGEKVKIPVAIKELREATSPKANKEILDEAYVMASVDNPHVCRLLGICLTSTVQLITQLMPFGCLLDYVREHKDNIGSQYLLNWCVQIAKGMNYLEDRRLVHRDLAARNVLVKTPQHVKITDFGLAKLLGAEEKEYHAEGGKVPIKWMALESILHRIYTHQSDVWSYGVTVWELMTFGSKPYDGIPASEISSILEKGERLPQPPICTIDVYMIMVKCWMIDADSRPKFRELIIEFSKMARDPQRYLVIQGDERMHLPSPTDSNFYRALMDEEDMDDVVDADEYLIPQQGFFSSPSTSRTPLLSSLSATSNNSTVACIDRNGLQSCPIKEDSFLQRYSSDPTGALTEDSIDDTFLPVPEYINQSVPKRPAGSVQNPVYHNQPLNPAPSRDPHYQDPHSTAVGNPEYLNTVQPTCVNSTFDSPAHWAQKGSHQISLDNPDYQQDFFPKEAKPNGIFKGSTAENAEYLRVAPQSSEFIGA
TEST: EGFR inhibitory assay
Type: biochemical
CONDITION NOTES: EGFR, conc 100 (log 2), unit not given
Would you kindly list %inh for each of these molecules?
Numbers only, in %.

Some molecules with recorded %inh:
SUBSTANCE SMILES	RECORDED RESULT
C/C(=N\Nc1ccc(S(N)(=O)=O)cc1)c1cnn(-c2cc(=O)[nH]c3ccc(Br)cc23)c1C	94.2
C/C(=N\Nc1ccc(C(=O)O)cc1)c1cnn(-c2cc(=O)[nH]c3ccccc23)c1C	92.1
C/C(=N\Nc1ccc(C(=O)O)cc1)c1cnn(-c2cc(=O)[nH]c3ccc(C)cc23)c1C	94.5

Now, please, on to the next molecule.
Incoming: Name the recorded %inh of the molecule listed here: C/C(=N\Nc1ccc(S(N)(=O)=O)cc1)c1cnn(-c2cc(=O)[nH]c3ccc(Cl)cc23)c1C
Outgoing: 93.7
